- MEASURED TARGET: UniProt:P28482
- Sequence (P28482 whole entry): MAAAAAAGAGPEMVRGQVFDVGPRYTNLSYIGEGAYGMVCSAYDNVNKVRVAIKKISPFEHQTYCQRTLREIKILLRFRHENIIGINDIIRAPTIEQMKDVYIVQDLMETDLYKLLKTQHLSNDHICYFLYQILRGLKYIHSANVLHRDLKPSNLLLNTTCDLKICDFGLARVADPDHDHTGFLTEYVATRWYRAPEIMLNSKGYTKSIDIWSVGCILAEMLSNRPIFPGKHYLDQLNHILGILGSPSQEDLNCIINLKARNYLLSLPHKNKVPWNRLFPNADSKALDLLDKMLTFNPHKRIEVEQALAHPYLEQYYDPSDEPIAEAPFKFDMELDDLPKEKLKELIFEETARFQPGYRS
- ASSAY PROCEDURE: Kinase assay (Caliper, FAM-labeled peptide), ERK2
- Type: biochemical
READOUT NAME: IC50 (nM)

Solved cases (5 shown):
| COMPOUND | MEASURED TARGET | IC50 (nM) |
| --- | --- | --- |
| COC[C@H]1Cn2cc(-c3cc(NC(C)=O)ncc3Cl)cc2C(=O)N1Cc1cc(F)ccc1CO [Example 112] | UniProt:P28482 | 1 |
| COC[C@H]1Cn2cc(-c3cc(Nc4ccnn4C)ncc3Cl)cc2C(=O)N1Cc1cc(F)c(F)cc1CO [Example 95] | UniProt:P28482 | 0.9 |
| Cc1cnc(NC(C)CO)nc1-c1cc2n(c1)CCN(Cc1cc(F)ccc1CO)C2=O (stereo not shown) [Example 121] | UniProt:P28482 | 0.2 |
| O=C1c2cc(-c3cc(NC4CCOCC4)ncc3Cl)cn2CCN1Cc1cc(F)ccc1CO [Example 126] | UniProt:P28482 | 0.32 |
| CC(C)Nc1cc(-c2cc3n(c2)CC2(COC(C)(C)OC2)CN(Cc2ccccc2CO)C3=O)c(Cl)cn1 [Example 26] | UniProt:P28482 | 1.4 |

a. COC[C@H]1Cn2cc(-c3cc(Nc4ccnn4C)ncc3Cl)cc2C(=O)N1Cc1cc(F)ccc1CO [Example 45]
b. Cn1nccc1Nc1cc(-c2cc3n(c2)CCN(Cc2cc(F)cc(F)c2CO)C3=O)c(Cl)cn1 [Example 148]
c. Cc1cnc(Nc2cccc(C)c2C)nc1-c1cc2n(c1)CCN(Cc1cc(F)ccc1CO)C2=O [Example 136]
Reorder the items by IC50, least to greatest. Please list each label once, in the requested order.
c, b, a
(c: 0.4 nM, b: 0.7 nM, a: 1.2 nM)

a. COC[C@H]1Cn2cc(-c3cc(NC4CCC4)ncc3Cl)cc2C(=O)N1Cc1cc(F)ccc1CO [Example 70]
b. COC[C@H]1Cn2cc(-c3cc(NC4CCOCC4)ncc3Cl)cc2C(=O)N1Cc1cc(F)ccc1CO [Example 62]
c. CC(C)Nc1cc(-c2cc3n(c2)CCN(Cc2ccccc2CO)C3=O)c(Cl)cn1 [Example 14]
d. COC[C@H]1Cn2cc(-c3cc(Nc4cnn(C)c4)ncc3Cl)cc2C(=O)N1Cc1cc(F)ccc1CO [Example 88]
# desc sort on IC50 across 4 compounds Please list each label once, in the requested order.
a, d, c, b

1. COC[C@H]1Cn2cc(-c3cc(NCC(C)(C)O)ncc3Cl)cc2C(=O)N1Cc1cc(F)ccc1CO [Example 65]
2. CC(C)Nc1cc(-c2cc3n(c2)CC(O)CN(Cc2cc(F)ccc2CO)C3=O)c(Cl)cn1 (stereo not shown) [Example 20]
Which of the two gives a bigger number for IC50: 1 or 2 ? Respond using the label that marks the chosen record.
1
(1: 1.6 nM, 2: 0.56 nM)

====

- MEASURED TARGET: UniProt P28482
- ASSAY PROCEDURE: Kinase assay (Caliper, FAM-labeled peptide), ERK2
- Type: biochemical
- Method: The compound was diluted to the desired concentration with DMSO, transferred 100 μL to a 96-well plate, and performed a gradient dilution 10 μL of compound from each well was taken and mixed with 90 μL of kinase buffer, and then transferred 5 μL from each well to a 384-well plate. […] After reading the collected data on Caliper, the data was converted to inhibition percentage. […]
READOUT NAME: IC50 (nM)

| COMPOUND | READOUT VALUE |
| --- | --- |
| COC(=O)C1Cn2cc(-c3cc(NC(C)C)ncc3Cl)cc2C(=O)N1Cc1cc(F)ccc1CO (centres unmarked) [Example 57] | 0.5 |

1. CC(C)Nc1cc(-c2cc3n(c2)CC(CO)(CO)CN(Cc2ccccc2CO)C3=O)c(Cl)cn1 [Example 27]
2. Cc1cnc(NC2COC2)nc1-c1cc2n(c1)CCN(Cc1cc(F)ccc1CO)C2=O [Example 32]
3. COC[C@H]1Cn2cc(-c3cc(NC4CC(F)(F)C4)ncc3Cl)cc2C(=O)N1Cc1cc(F)ccc1CO [Example 63]
# desc sort on IC50 across 3 compounds Please list each label once, in the requested order.
3, 1, 2

I. COC[C@H]1Cn2cc(-c3cc(Nc4ccn(C)n4)ncc3Cl)cc2C(=O)N1Cc1cc(F)ccc1CO [Example 86]
II. COC[C@H]1Cn2cc(-c3cc(NC4COC4)ncc3Cl)cc2C(=O)N1Cc1cc(F)ccc1CO [Example 60]
Which of the two gives a bigger number for IC50: I or II ? Respond using the label that marks the chosen record.
I

====

- Tested on: HCT 116 cells
- ASSAY PROCEDURE: Cell proliferation assay (HCT 116), Cell-titer Glo
- Assay type: cell-based
- TEST PARAMETERS: Homo sapiens, 120 h incubation
READOUT NAME: IC50 (nM)

Solved cases (4 shown):
| COMPOUND | MEASURED TARGET | IC50 [nM] |
| --- | --- | --- |
| O=C1c2cc(-c3cc(NC4CCOCC4)ncc3Cl)cn2CCN1Cc1cc(F)ccc1CO [Example 126] | HCT 116 cells | 14.3 |
| COC[C@H]1Cn2cc(-c3cc(Nc4conc4C)ncc3Cl)cc2C(=O)N1Cc1cc(F)ccc1CO [Example 83] | HCT 116 cells | 23 |
| Cn1nccc1Nc1cc(-c2cc3n(c2)CCN(Cc2cc(F)ccc2CO)C3=O)c(Cl)cn1 [Example 50] | HCT 116 cells | 6.5 |
| Cn1nccc1Nc1cc(-c2cc3n(c2)CCN(Cc2ccc(F)cc2CO)C3=O)c(Cl)cn1 [Example 149] | HCT 116 cells | 21.2 |

I. Cn1nccc1Nc1cc(-c2cc3n(c2)CCN(Cc2cc(F)cc(F)c2)C3=O)c(Cl)cn1 [Example D10, reference compound]
II. COC[C@H]1Cn2cc(-c3cc(Nc4ccnn4C)ncc3C(F)(F)F)cc2C(=O)N1Cc1cc(F)ccc1CO [Example 100]
// select label with min value of measured IC50 from [ I , II ] Respond using the label that marks the chosen record.
II

====

- MEASURED TARGET: ERK1 (Homo sapiens)
- ASSAY PROCEDURE: Kinase assay (Caliper, FAM-labeled peptide), ERK1
- Assay type: biochemical
READOUT NAME: IC50 (nM)

| COMPOUND | VALUE UNITS | IC50 |
| --- | --- | --- |
| CC(C)Nc1cc(-c2cc3n(n2)CC(CO)(CCl)CN(Cc2ccccc2CO)C3=O)c(Cl)cn1 (stereo not shown) | nM | 1.3 |
| CC(C)Nc1cc(-c2cnc(C(=O)NCc3ccccc3CO)s2)c(Cl)cn1 | nM | 0.9 |

I. COC[C@H]1Cn2cc(-c3cc(NC4CCOC4)ncc3Cl)cc2C(=O)N1Cc1cc(F)ccc1CO (stereo partly shown)
II. COC[C@H]1Cn2cc(-c3cc(Nc4ccnn4CC(F)F)ncc3Cl)cc2C(=O)N1Cc1cc(F)ccc1CO
III. Cc1cnc(Nc2cccc(C)c2C)nc1-c1cc2n(c1)CCN(Cc1cc(F)ccc1CO)C2=O
# desc sort on IC50 across 3 compounds Please list each label once, in the requested order.
II, III, I

====

- MEASURED TARGET: ERK1 (Homo sapiens, UniProt P27361)
- Sequence (P27361 whole entry): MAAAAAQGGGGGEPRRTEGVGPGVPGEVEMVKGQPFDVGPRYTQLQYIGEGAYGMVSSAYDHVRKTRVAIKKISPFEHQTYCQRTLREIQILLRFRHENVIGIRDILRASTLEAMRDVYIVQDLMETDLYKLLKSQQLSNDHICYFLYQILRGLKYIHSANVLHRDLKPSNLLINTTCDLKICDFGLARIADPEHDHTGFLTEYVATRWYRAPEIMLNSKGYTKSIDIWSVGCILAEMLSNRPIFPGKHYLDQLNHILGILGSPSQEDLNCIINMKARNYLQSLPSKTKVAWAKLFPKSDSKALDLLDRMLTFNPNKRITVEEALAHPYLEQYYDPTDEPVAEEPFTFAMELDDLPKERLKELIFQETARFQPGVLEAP
- ASSAY PROCEDURE: Kinase assay (Caliper, FAM-labeled peptide), ERK1
- Assay type: biochemical
READOUT NAME: IC50 (nM)

Solved cases (3 shown):
| COMPOUND | VALUE UNITS | IC50 |
| --- | --- | --- |
| CC(C)Nc1cc(-c2cc3n(c2)CCN(Cc2cc(F)ccc2CO)C3=O)c(Cl)cn1 | nM | 0.4 |
| CC(C)Nc1cc(-c2cc3n(c2)CC2(CNC2)CN(Cc2ccccc2CO)C3=O)c(Cl)cn1 | nM | 0.65 |
| COC[C@H]1Cn2cc(-c3cc(Nc4ccn(C)n4)ncc3Cl)cc2C(=O)N1Cc1cc(F)ccc1CO | nM | 0.91 |

a. COC[C@H]1Cn2cc(-c3cc(NC4CC(F)(F)C4)ncc3Cl)cc2C(=O)N1Cc1cc(F)ccc1CO
b. Cc1cnc(Nc2ccnn2C)nc1-c1cc2n(c1)CCN(Cc1cc(F)ccc1CO)C2=O
Which of the two gives a bigger number for IC50: a or b ? Respond using the label that marks the chosen record.
a
(a: 1.5 nM, b: 0.42 nM)

====

- System: HCT 116 cells
- ASSAY PROCEDURE: Cell proliferation assay (HCT 116), Cell-titer Glo
- Format: cell-based
- TEST PARAMETERS: Homo sapiens, 120 h incubation
READOUT NAME: IC50 (nM)

Solved cases (3 shown):
| COMPOUND | MEASURED TARGET | VALUE UNITS | IC50 |
| --- | --- | --- | --- |
| COC[C@H]1Cn2cc(-c3nc(Nc4ccnn4C)ncc3C)cc2C(=O)N1Cc1cc(F)ccc1CO | HCT 116 cells | nM | 10.4 |
| CCn1nccc1Nc1cc(-c2cc3n(c2)C[C@H](COC)N(Cc2cc(F)ccc2CO)C3=O)c(Cl)cn1 | HCT 116 cells | nM | 10.7 |
| COC[C@H]1Cn2cc(-c3nc(Nc4ccnn4C)ncc3C)nc2C(=O)N1Cc1ccc(F)c(F)c1 [AZD0364, reference compound] | HCT 116 cells | nM | 83 |

I. COC[C@H]1Cn2cc(-c3cc(Nc4ccnn4C)ncc3C)cc2C(=O)N1Cc1cc(F)ccc1CO
II. Cn1nccc1Nc1cc(-c2cc3n(c2)CCN(Cc2cccc(F)c2)C3=O)c(Cl)cn1 [Example D9, reference compound]
Which of the two gives a bigger number for IC50: I or II ? Respond using the label that marks the chosen record.
II
(II: 53.6 nM, I: 11.6 nM)

a. COC[C@H]1Cn2cc(-c3nc(NC4CCOCC4)ncc3Cl)cc2C(=O)N1Cc1cc(F)ccc1CO
b. Cn1nccc1Nc1cc(-c2cc3n(c2)CCN(Cc2cccc(F)c2CO)C3=O)c(Cl)cn1
Which of the two gives a bigger number for IC50: a or b ? Respond using the label that marks the chosen record.
b
(b: 9.5 nM, a: 5.3 nM)

1. COC[C@H]1Cn2cc(-c3cc(Nc4ccnn4C)ncc3Cl)cc2C(=O)N1Cc1cc(F)c(F)cc1CO
2. COC[C@H]1Cn2cc(-c3cc(N[C@H]4CC[C@H](O)CC4)ncc3Cl)cc2C(=O)N1Cc1cc(F)ccc1CO
Which of the two gives a bigger number for IC50: 1 or 2 ? Respond using the label that marks the chosen record.
2

The values you see were collected from patent US11466013B2.
